Reported Minus NSB* values follow for various compounds
Molecular target: mu opiate receptor (Rattus norvegicus, UniProt P33535)
Construct: from tissue; host or cells: rat brain membranes/homogenate
Sequence (P33535 whole entry): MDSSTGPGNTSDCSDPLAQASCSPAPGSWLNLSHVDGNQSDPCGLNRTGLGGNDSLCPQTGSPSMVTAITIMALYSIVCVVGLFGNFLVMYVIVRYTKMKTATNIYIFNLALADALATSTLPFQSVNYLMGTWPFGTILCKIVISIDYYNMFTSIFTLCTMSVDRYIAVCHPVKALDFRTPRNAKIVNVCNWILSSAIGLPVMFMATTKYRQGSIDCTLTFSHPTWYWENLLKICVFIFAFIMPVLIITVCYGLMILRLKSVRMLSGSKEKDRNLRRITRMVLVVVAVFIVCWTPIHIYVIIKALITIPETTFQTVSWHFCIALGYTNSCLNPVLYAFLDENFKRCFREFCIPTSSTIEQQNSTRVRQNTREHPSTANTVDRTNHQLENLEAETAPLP
Experiment: Inhibition of [3H]DAMGO binding to the mu opiate receptor in rat brain homogenates
Details: mean minus non-specific binding; 0.08 mg of compound per milliliter, 7 nM 3H-labeled DAMGO, rat brain membranes
Note: the reply should be a number with no unit written.

compound="Cc1nc(CC2CCCCC2)c2n1C(C(C)C)C(=O)N2 (stereo not shown) [Pool 46]" endpoint="Minus NSB*" readout_value=573.40
compound="CC(C)c1nc(Cc2cc(C(F)(F)F)cc(C(F)(F)F)c2)n2c1NC(=O)C2C(C)C (racemic)" endpoint="Minus NSB*" readout_value=603.65

Ask: Form field - read-out: Minus NSB*; system: mu opiate receptor (Rattus norvegicus, UniProt P33535); submitted item: Cc1nc(Cc2ccc(O)cc2)c2n1C(C(C)C)C(=O)N2 (racemic) [Pool 64]
Reply: 402.90

Ask: Queued: Cc1nc(Cc2ccccc2)c2n1C(C(C)C)C(=O)N2 (racemic) [Pool 63]
Reply: 546.35

----------
Target: mu opiate receptor (Rattus norvegicus)
Construct: from tissue; host or cells: rat brain membranes/homogenate
Test: Inhibition of [3H]DAMGO binding to the mu opiate receptor in rat brain homogenates
Parameters: unit not given beside the values
Conditions: mean bound radioactivity of [3H]DAMGO; 0.08 mg of compound per milliliter, 7 nM 3H-labeled DAMGO, rat brain membranes
// criterion not met strictly below 900 in Mean; criterion met otherwise

Ask: Determine whether this compound has Mean no lower than 900: CC(C)c1nc(C(C)(C)C)n2c1NC(=O)C2C(C)C (stereo not shown) [Pool 135]
Reply: criterion met

Ask: Next record, please: Cc1ncc2n1C(C(C)C)C(=O)N2 (stereo not shown) [Pool 34]
Reply: criterion met

Ask: Another: CC(C)c1nc(Cc2cccc(C(F)(F)F)c2)n2c1NC(=O)C2C(C)C (racemic) [Pool 73]
Reply: criterion met

----------
Target: kappa opiate receptor (Cavia porcellus, UniProt P41144)
Construct: guinea pig cortices and cerebella were homogenized in 40 mL of Buffer A; from tissue; host or cells: guinea pig cortices and cerebella, crude membrane suspension
Sequence (P41144 whole entry): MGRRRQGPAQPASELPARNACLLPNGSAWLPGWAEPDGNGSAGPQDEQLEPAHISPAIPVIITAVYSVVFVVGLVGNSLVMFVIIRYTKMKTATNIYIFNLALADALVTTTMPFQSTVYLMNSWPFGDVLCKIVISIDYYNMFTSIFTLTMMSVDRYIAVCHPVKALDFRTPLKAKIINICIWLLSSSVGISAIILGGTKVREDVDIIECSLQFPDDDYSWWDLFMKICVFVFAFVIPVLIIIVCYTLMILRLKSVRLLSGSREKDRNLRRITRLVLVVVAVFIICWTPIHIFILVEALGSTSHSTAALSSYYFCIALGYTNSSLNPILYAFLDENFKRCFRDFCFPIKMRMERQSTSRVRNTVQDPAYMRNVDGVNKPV
Assay: Inhibition of tritiated U69,593 binding to the kappa opiate receptor in guinea pig brain homogenates
Settings: inhibition of [3H]U69,593 binding; 3 nm tritiated U69,593, guinea pig brain membranes
The label depends only on % Inhibition: yes if it is at least 40%, no if it is smaller.

molecule="CC(C)c1nc(Cc2ccc(F)cc2)n2c1NC(=O)C2C(C)C (racemic)" measurement_target="kappa opiate receptor (Cavia porcellus, UniProt P41144)" discrete_label=no
molecule="Cc1nc(Cc2ccc(O)cc2)c2n1C(C(C)C)C(=O)N2 (racemic) [Pool 64]" measurement_target="kappa opiate receptor (Cavia porcellus, UniProt P41144)" discrete_label=no
molecule="CC(C)Cc1nc(C(C)C)c2n1C(C(C)C)C(=O)N2 (stereo not drawn)" measurement_target="kappa opiate receptor (Cavia porcellus, UniProt P41144)" discrete_label=no
molecule="CC(C)c1nc(CC23CC4CC(CC(C4)C2)C3)n2c1NC(=O)C2C(C)C (stereo not drawn)" measurement_target="kappa opiate receptor (Cavia porcellus, UniProt P41144)" discrete_label=no
molecule="CC1CCC(Cc2nc(C(C)C)c3n2C(C(C)C)C(=O)N3)CC1 (stereo not drawn)" measurement_target="kappa opiate receptor (Cavia porcellus, UniProt P41144)" discrete_label=yes

// next entry
Ask: Reported % Inhibition reaches at least 40% for CC(C)c1nc(CCCc2ccccc2)n2c1NC(=O)C2C(C)C (racemic) ?
Reply: no

----------
Target: mu opiate receptor (Rattus norvegicus)
Construct: from tissue; host or cells: rat brain membranes/homogenate
Experiment: Inhibition of [3H]DAMGO binding to the mu opiate receptor in rat brain homogenates
Parameters: unit not given beside the values
Conditions: mean bound radioactivity of [3H]DAMGO; 0.08 mg of compound per milliliter, 7 nM 3H-labeled DAMGO, rat brain membranes
Rule: Mean under 900 gives not satisfied, otherwise satisfied.

Ask: Given CC(C)c1nc(C(C2CCCCC2)C2CCCCC2)n2c1NC(=O)C2C(C)C (stereo not shown) , state whether its Mean is at least 900.
Reply: satisfied

Ask: Input CC(C)c1nc(Cc2ccccc2)n2c1NC(=O)C2C(C)C (racemic)
Reply: not satisfied

Ask: Moving on to the next compound: Cc1nc(C)n2c1NC(=O)C2C(C)C (stereo not shown) [Pool 35]
Reply: not satisfied

Ask: Would you mind doing CCCC1C(=O)Nc2c(C(C)C)nc(C)n21 (stereo not shown) [Pool 12] as well?
Reply: satisfied

Ask: Proceed to CCC(C)c1nc(C)n2c1NC(=O)C2C(C)C (stereo not shown) [Pool 38]
Reply: not satisfied

----------
Molecular target: mu opiate receptor (Rattus norvegicus)
Construct: from tissue; host or cells: rat brain membranes/homogenate
Test: Inhibition of [3H]DAMGO binding to the mu opiate receptor in rat brain homogenates
Conditions: percent inhibition of DAMGO binding; 0.08 mg of compound per milliliter, 7 nM 3H-labeled DAMGO, rat brain membranes
# key: entry, value: % Inhibition

Worked examples, 8 compounds total:
compound="CCC(C)c1nc(C)n2c1NC(=O)C2C(C)C (stereo not shown) [Pool 38]" measurement_target="mu opiate receptor (Rattus norvegicus)" readout_value=60%
compound="CCCc1nc(C)n2c1NC(=O)C2C(C)C (stereo not shown) [Pool 45]" measurement_target="mu opiate receptor (Rattus norvegicus)" readout_value=38%
compound="CC(C)c1nc(Cc2ccc(Cl)c(Cl)c2)n2c1NC(=O)C2C(C)C (racemic) [Pool 81]" measurement_target="mu opiate receptor (Rattus norvegicus)" readout_value=29%
compound="CC1CCC(Cc2nc(C(C)C)c3n2C(C(C)C)C(=O)N3)CC1 (stereo not shown) [Pool 152]" measurement_target="mu opiate receptor (Rattus norvegicus)" readout_value=52%
compound="CC(C)c1nc(CC(C)(C)C)n2c1NC(=O)C2C(C)C (stereo not shown) [Pool 136]" measurement_target="mu opiate receptor (Rattus norvegicus)" readout_value=28%
compound="CCCc1nc(C)n2c1NC(=O)C2C(C)C (racemic) [Pool 61]" measurement_target="mu opiate receptor (Rattus norvegicus)" readout_value=61%
compound="CCOc1ccc(Cc2nc(C(C)C)c3n2C(C(C)C)C(=O)N3)cc1 (racemic) [Pool 79]" measurement_target="mu opiate receptor (Rattus norvegicus)" readout_value=35%
compound="Cc1nc(C(C)C)c2n1C(Cc1ccccc1)C(=O)N2 (stereo not shown) [Pool 30]" measurement_target="mu opiate receptor (Rattus norvegicus)" readout_value=35%

Ask: What measured % Inhibition goes with CC(C)c1nc(Cc2cccc(F)c2)n2c1NC(=O)C2C(C)C (racemic) [Pool 71] ?
Reply: 43%

Ask: Another compound: CC(C)c1nc(Cc2ccccc2)n2c1NC(=O)C2C(C)C (racemic) [Pool 110]
Reply: 46%

----------
Biological target: mu opiate receptor (Rattus norvegicus)
Construct: from tissue; host or cells: rat brain membranes/homogenate
Assay: Inhibition of [3H]DAMGO binding to the mu opiate receptor in rat brain homogenates
Conditions: percent inhibition of DAMGO binding; 0.08 mg of compound per milliliter, 7 nM 3H-labeled DAMGO, rat brain membranes
Met means recorded % Inhibition is 40% or above; Not met means it is below 40%.

compound="Cc1nc(Cc2ccccc2)c2n1C(C(C)C)C(=O)N2 (centres unmarked) [Pool 47]" discrete_label="Not met"
compound="Cc1ncc2n1C(C(C)C)C(=O)N2 (centres unmarked)" discrete_label="Not met"

Ask: Is % Inhibition at least 40%? Consider COc1ccc(Cc2nc(C(C)C)c3n2C(C(C)C)C(=O)N3)cc1 (racemic)
Reply: Met

----------
Target: kappa opiate receptor (Cavia porcellus)
Construct: guinea pig cortices and cerebella were homogenized in 40 mL of Buffer A; from tissue; host or cells: guinea pig cortices and cerebella, crude membrane suspension
Assay: Inhibition of tritiated U69,593 binding to the kappa opiate receptor in guinea pig brain homogenates
Set-up: unit not given beside the values
Conditions: mean bound radioactivity of [3H]U69,593; 3 nm tritiated U69,593, guinea pig brain membranes, 2.5 hours 25° C.
Property: Mean; scope: individual molecules

molecule="Cc1nc(CCCNC(=N)N)c2n1C(C(C)C)C(=O)N2 (stereo not shown) [Pool 42]" endpoint=Mean readout_value=1406.35

Ask: Item under review: CCCc1nc(C)n2c1NC(=O)C2C(C)C (racemic) [Pool 61] . Reported Mean?
Reply: 1433.75

Ask: Another: CCCCC1C(=O)Nc2c(C(C)C)nc(C)n21 (stereo not shown) [Pool 11]
Reply: 1736.15

Ask: Next: CCC(C)Cc1nc(C(C)C)c2n1C(C(C)C)C(=O)N2 (stereo not shown) [Pool 126]
Reply: 1666.5

Ask: Now try Cc1nc(C(C)C)c2n1C(CC(C)C)C(=O)N2 (stereo not shown) [Pool 4] .
Reply: 1895.55

Ask: // query: CC(C)c1nc(CC2CC3CCC2C3)n2c1NC(=O)C2C(C)C (stereo not shown) [Pool 155]
Reply: 1622.25

Ask: Lookup CCCCCCc1nc(C(C)C)c2n1C(C(C)C)C(=O)N2 (racemic) [Pool 122]
Reply: 1443.7

Ask: Now the molecule CC(C)c1nc(C(C2CCCCC2)C2CCCCC2)n2c1NC(=O)C2C(C)C (stereo not shown) [Pool 139]
Reply: 1515.95

Ask: // repeat for CC(C)c1nc(C2CCC2)n2c1NC(=O)C2C(C)C (stereo not shown) [Pool 144] and report
Reply: 1447.5

Ask: Likewise for CC(C)c1nc(CC(C)(C)C)n2c1NC(=O)C2C(C)C (stereo not shown) [Pool 136] ?
Reply: 1741.9
